# System: Wild type
# assay procedure: S. aureus survival, RN4220 and DeltatarO strains – OD600, teichoic acid synthesis inhibitors, primary screen (AID 463173)
# measurement conditions: S. aureus RN4220 wild type/DeltatarO growth, OD600, 18 h, active compounds read low, screened at 18.75 µg/mL (by protocol)
About 1,700 (3.3%) of roughly 52,000 compounds were called active. The sample holds actives, similar compounds and a random draw of the others, so the mix is not that of the screen.
Give measured survival for each item. Keep answers brief.
Answers are plain numbers, in %.

INSERT INTO assay_data (compound, target, readout_kind, numeric_readout) VALUES
  ('COc1ccc2cc3cc(C(=O)NCc4ccccc4OC)oc3nc2c1', 'Wild type', 'survival', 80),
  ('COc1cc(NC(=O)CSc2nc3ccccc3nc2Cc2ccccc2OC)cc(OC)c1', 'Wild type', 'survival', 66),
  ('Cc1cccc(C)c1Nc1c(-c2ccccn2)nc2c(C)cccn12', 'Wild type', 'survival', 77);

Hey, can you go through the list below and give me survival for every item?
1. CC(C)(C)OC(=O)N1CCC(c2nnc(SCc3ccccc3F)o2)CC1
2. O=C(Cn1c(=O)sc2ccccc21)OCc1ccccc1
3. CC(C)C(=O)Nc1ccccc1C(=O)OCc1cc(=O)n2nc(C3CC3)sc2n1
4. CC(C)c1ccc(NS(=O)(=O)c2ccc3[nH]cc(C(=O)NC4CCCCC4)c(=O)c3c2)cc1
5. Cc1ccc(C(=O)NCC(c2ccco2)S(=O)(=O)c2ccccc2)cc1C (stereo not given)

Result:
1. 73
2. 118
3. 100
4. 13
5. 72

Your task in this section: give survival for each listed record.
1. Cc1nn(C)c2c1c(-c1ccccc1)cc(=O)n2Cc1ccccc1F
2. CC(C)CCOc1ccccc1Cn1c(=O)sc2ccccc21
3. CC(C)(C)OC(=O)N1CCC(c2nnc(SCc3cccc(Cl)c3)o2)CC1
4. Cc1ccc(-c2cnc(NCc3c(F)cccc3Cl)n2C)cc1
5. Cc1ccccc1CNC(=O)C(=O)NCC(c1ccco1)S(=O)(=O)c1ccccc1 (stereo not given)
6. CCc1nnc(SCc2ccc(F)cc2Cl)c2cc3sccc3n12
7. O=S(=O)(c1ccc(Br)cc1)N1CCn2cccc2C1c1ccc(Br)cc1 (stereo not given)

Result:
120
-1
0
-12
76
93
65

Quick request: survival for each listed item, please.
1. Cc1oc(-c2ccc(Cl)cc2)nc1Cn1c(=O)cc(C)c2c(C)nn(-c3ccccc3)c21
2. O=C(CSc1nccn1Cc1ccc(F)cc1)NC1CCCC1
3. CCC(=O)N1CCc2cc(Br)cc(S(=O)(=O)N3CCCC(C(=O)Nc4ccc(C(C)C)cc4)C3)c21 (stereo not given)
4. Cc1oc(-c2ccccc2)nc1Cn1c(=O)cc(-c2ccccc2)c2c(C)nn(C)c21
5. O=C(NCc1ccccc1F)C(=O)NCC(c1ccco1)S(=O)(=O)c1ccccc1 (stereo not given)
6. O=C(NCC(c1cccs1)S(=O)(=O)c1cccs1)c1ccccc1 (stereo not given)
7. CCCOc1ccccc1Cn1c(=O)sc2ccccc21

Result:
1. 83
2. 68
3. 106
4. 76
5. -6
6. 70
7. -5

Please state, for each entry, its recorded survival.
1. CCN1CCC(N(Cc2cccc(OC)c2)C(=O)Nc2cccc(C(F)(F)F)c2)CC1
2. COc1ccccc1C(=O)Nc1ccccc1OCc1cc(=O)n2c(C)csc2n1
3. Cn1c(-c2ccc3c(c2)OCO3)cnc1NCc1cc(Cl)ccc1O
4. CN(C)c1ccc(N/C=C(\C#N)c2nc3ccccc3[nH]2)cc1
5. O=C(Nc1cccc(C(F)(F)F)c1)C1CCN(S(=O)(=O)c2cccs2)CC1

Result:
1. 66
2. 81
3. 112
4. 118
5. 92

# return survival for each item in the list
1. CCOc1ccc(-c2nc(Cn3c(=O)cc(C)c4c(C)nn(-c5ccc(C)cc5)c43)c(C)o2)cc1
2. CCOc1ccc(-c2nc(Cn3c(=O)cc(C)c4c(C)nn(-c5ccccc5)c43)c(C)o2)cc1
3. Cc1cccc(NC(=O)Cn2c(=O)sc3ccccc32)c1

Result:
1: 87; 2: 14; 3: 119

====

# System: Wild type
# assay procedure: S. aureus survival, RN4220 and DeltatarO strains – OD600, teichoic acid synthesis inhibitors, primary screen (AID 463173)
# measurement conditions: S. aureus RN4220 wild type/DeltatarO growth, OD600, 18 h, screened at 18.75 µg/mL (by protocol)
The whole screen tested about 52,000 compounds, of which about 1,700 (3.3%) were called active. Rule as the data show it: active = survival mostly below about 52% (no sharp cut-off); inactive = mostly above about 56%. For the sample, actives were picked, then their nearest neighbours and some compounds at random.
Respond with a class label; see 1 for active, -1 for inactive

Previously resolved entries follow.
INSERT INTO results (molecule, target, discrete_label) VALUES
  ('Cc1cccc(CNC(=O)Cn2ccc3cc(S(=O)(=O)N4CCCC4)ccc32)c1', 'Wild type', -1),
  ('Cc1cccc(-n2c(C)nc3cc(C(=O)NCCC4=CCCCC4)ccc32)c1', 'Wild type', -1),
  ('Cc1cccc(-n2cnc3cc(C(=O)NC4CCCCCC4)ccc32)c1', 'Wild type', -1),
  ('Cc1ccc(CNC(=O)CSc2nc3n[nH]c(C)c3c(=N)n2-c2ccccc2Cl)cc1', 'Wild type', -1),
  ('CCCC(=O)N(c1ccc2oc3c(c2c1)CCCC3)S(=O)(=O)c1ccc(CC)cc1', 'Wild type', -1);

Problem: What did this assay record as the result for O=C(CCC1CCCC1)N1CCN(C(=O)Cc2ccccc2)CC1 ?
Result: -1

Problem: What classification did CCCNC(=O)c1ccc2c(c1)nc(C)n2-c1cccc(C)c1 end up with in this test?
Result: -1

Problem: For CCc1nnc(NC(=O)c2nc(S(=O)(=O)Cc3ccc(C)cc3)ncc2Cl)s1 , what call appears in the results of this test?
Result: -1

Problem: Please share the test call associated with O=C(Cn1ccc2cc(S(=O)(=O)N3CCCCC3)ccc21)NCc1cccc(Cl)c1 .
Result: -1

Problem: What is the recorded call for this molecule in the test? COc1cc(C)cc2oc(=O)c(CC(=O)NCCc3ccc(Cl)cc3)c(C)c12
Result: -1

Problem: Give the logged outcome of this assay for the following molecule: CCN(CC)C(=O)CSc1nsc(SCC(=O)N(CC)CC)c1C#N
Result: -1

Problem: Any idea what this test logged for CCC(=O)Nc1ccc(C(=O)CSc2nnc(-c3ccc(O)cc3)n2CC2CCCO2)cc1 (stereo not drawn) ?
Result: -1

Problem: For this molecule, state the assay outcome: Cc1ccc(-n2cnc3cc(C(=O)NCc4ccccc4Cl)ccc32)c(C)c1
Result: 1

Problem: Which outcome was entered for the molecule O=C1C2=C(Nc3ccccc3SC2c2ccccc2C(F)(F)F)c2ccccc21 (stereo not drawn) in this test?
Result: 1

Problem: In this assay, the call recorded for Cc1nc2cc(C(=O)NCCC3=CCCCC3)ccc2n1-c1ccc(Br)cc1 was what?
Result: -1

Problem: Entry CCOc1ccc(N2CC(c3nc4ccccc4n3CCCCOc3ccc(OC)cc3)CC2=O)cc1 (stereo not drawn) : call = ?
Result: -1

Problem: Test call for this molecule, please: O=C(CSCc1ccccc1Cl)NCc1ccc(Cl)c(Cl)c1
Result: -1

Problem: What outcome does the record of this test show for Cc1cccc(CNC(=O)Cn2ccc3cc(S(=O)(=O)N4CCCCCC4)ccc32)c1 ?
Result: 1

Problem: Record request — test call for Cc1cc2nsnc2c(S(=O)(=O)NCC(=O)O)c1C
Result: -1

Problem: I'd appreciate the recorded outcome for CCCCCNC(=O)c1ccc2c(c1)ncn2-c1cccc(C)c1 from this test.
Result: 1

Problem: Answer briefly: the call reported for CCCCCNC(=O)c1ccc2c(c1)nc(C)n2-c1cccc(C)c1 in this assay.
Result: 1

Problem: # outcome recorded in this test, key = CC(C)(C)c1ccc(C2Sc3ccccc3NC3=C2C(=O)c2ccccc23)cc1 (stereo not drawn)
Result: -1

Problem: Which outcome was assigned to CC(C)(C)c1cn2ccc3ccccc3c2n1 in this test?
Result: -1

Problem: State the result this test recorded for Cc1cc(C)cc(-n2cnc3cc(C(=O)NCCc4ccccc4)ccc32)c1 .
Result: -1

Problem: What classification did Cc1ccccc1OCCn1c(CCNC(=O)C2CCCCC2)nc2ccccc21 end up with in this test?
Result: -1

Problem: Please let me know the test result on file for O=C(O)c1ccc(NCc2nc3ccccc3n2CCOc2ccccc2Cl)cc1 .
Result: -1

====

# System: Wild type
# assay procedure: S. aureus survival, RN4220 and DeltatarO strains – OD600, teichoic acid synthesis inhibitors, primary screen (AID 463173)
# measurement conditions: S. aureus RN4220 wild type/DeltatarO growth, OD600, 18 h, screened at 18.75 µg/mL (by protocol)
Hit rate of the full screen: of about 52,000 compounds, about 1,700 (3.3%) were called active. No stated cut-off is given here; in the data, active means survival mostly below about 52% (no sharp cut-off); inactive means mostly above about 56%. Only a selection was taken, and actives are over-represented in it overall.
Use one of these outcomes when replying: active, inactive

INSERT INTO results (molecule, discrete_label) VALUES
  ('COc1cccc(CNC(=O)C(NS(=O)(=O)c2cccs2)C(C)C)c1 (centres undefined)', 'inactive'),
  ('Cc1cc(Br)ccc1NC(=O)c1cc2c(s1)-c1ccccc1SC2', 'inactive'),
  ('Cc1ccc2c(CNCCc3ccc(Cl)cc3)c(C(=O)O)n(Cc3ccc(F)cc3)c2c1', 'active'),
  ('CCOC(=O)N1CCC2(CC1)OC(=O)C(C)=C2C(=O)NCc1cccc(OC)c1', 'inactive'),
  ('Cc1ccc(CNCc2c(C(=O)O)n(Cc3ccccc3C)c3cc(C)ccc23)cc1', 'inactive');

Problem: What was the test verdict on CCC1Oc2ccccc2N(CC(=O)NCc2ccc(C)cc2)C1=O (centres undefined) ?
Result: inactive

Problem: Record lookup: outcome of this test for O=C(c1cccs1)N1CCCc2ccccc21 ?
Result: inactive

Problem: Could you please tell me the result logged for O=C(NCCCc1ccccc1)c1nn(-c2ccccc2F)nc1CO in this assay?
Result: inactive

Problem: Per the assay record, what outcome was assigned to CCOc1cc(CNc2ccc(O)cc2)cc(Br)c1OCc1ccccc1 ?
Result: active
